Tested on: CCRF-CEM
Assay: Compound was tested for its effect on the proliferation of CCRF-CEM human lymphoblastic T-leukemia cell line
Type: functional, cell-based
Parameter: pIC50. Scope: all listed entries.
Please note pIC50 is a logarithmic value: minus log10 of concentration in mol/L. Answer with that number alone.

COc1cccc2c1C(=O)c1c(O)c3c(c(O)c1C2=O)C[C@@](O)(C(=O)CO)C[C@@H]3O[C@H]1C[C@H](N)[C@H](O)[C@H](C)O1: 7.10
COC(=O)c1nn([C@@H]2O[C@H](CO)[C@@H](O)[C@H]2O)cc1I: 5.82
NC(=O)c1ncn([C@@H]2O[C@H](CO)[C@@H](O)[C@H]2O)n1: 4.72

Look up and report measured pIC50 for this entry: CCCCOC(=O)c1nn([C@@H]2O[C@H](CO)[C@@H](O)[C@H]2O)cc1I
4.72

Look up and report measured pIC50 for this entry: Cc1noc(-c2nn([C@@H]3O[C@H](CO)[C@@H](O)[C@H]3O)cc2I)n1
5.59

----------
System: CCRF-SB
Assay: Compound was tested for its effect on the proliferation of CCRF-SB human lymphoblastic B-leukemia cell line.
Type: functional, cell-based
pIC50: −log10 of the molar value.
Reported Property: pIC50

COC(=O)c1ncn([C@@H]2O[C@H](CO)[C@@H](O)[C@H]2O)n1: < 3.52

Look up and report measured pIC50 for this entry: COC(=O)c1csc([C@@H]2O[C@H](CO)[C@@H](O)[C@H]2O)n1
< 3.52

Look up and report measured pIC50 for this entry: C#Cc1cn([C@@H]2O[C@H](CO)[C@@H](O)[C@H]2O)nc1C(N)=O
< 3.52

Look up and report measured pIC50 for this entry: O=C(O)c1nn([C@@H]2O[C@H](CO)[C@@H](O)[C@H]2O)cc1I
< 3.52

Look up and report measured pIC50 for this entry: NC(=O)c1ncn([C@@H]2O[C@H](CO)[C@@H](O)[C@H]2O)n1
< 4.00

Look up and report measured pIC50 for this entry: NC(=O)c1nn([C@@H]2O[C@H](CO)[C@@H](O)[C@H]2O)cc1I
< 3.52
